# measured.target: human LPA1 (Homo sapiens)
# Construct: expressed in transfected cells; host or cells: CHO-K1
# Sequence (Q92633 whole entry): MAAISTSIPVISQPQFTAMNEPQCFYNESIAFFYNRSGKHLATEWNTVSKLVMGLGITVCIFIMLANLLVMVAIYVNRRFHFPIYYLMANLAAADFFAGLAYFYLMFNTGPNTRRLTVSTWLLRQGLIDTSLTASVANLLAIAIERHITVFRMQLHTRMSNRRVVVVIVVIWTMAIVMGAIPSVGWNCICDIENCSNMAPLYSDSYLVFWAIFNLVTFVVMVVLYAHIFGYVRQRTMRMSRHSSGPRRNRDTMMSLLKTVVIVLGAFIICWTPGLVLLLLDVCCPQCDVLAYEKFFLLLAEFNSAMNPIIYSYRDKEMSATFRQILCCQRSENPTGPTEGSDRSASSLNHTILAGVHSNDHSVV
# protocol.description: In vitro LPA1 calcium flux antagonist assay - Bioduro protocol
# Assay type: cell-based
# protocol.conditions: CHO-K1 cells overexpressing human LPA1 and G15a; LPA challenge at EC80; calcium mobilization on FLIPR Tetra; read-out: IC50
Measured IC50 accompanies every entry in the list below.

compound	units.of.measure	op	IC50
COc1cc(-c2ccc(NC3(C(=O)O)CCOCC3)cc2COC2CCCC2)cc(OC)c1C [Compound 134]	nM	=	90.6
COCc1cccc(-c2ccc(NC3(C(=O)O)CCOCC3)cc2COC2CC2)c1C(F)F [Compound 311]	nM	=	148
COc1cc(-c2ccc(NC3(C(=O)O)CCOCC3)cc2COC2CC2)c(C(F)F)c(OC)c1C [Compound 310]	nM	=	6.93
CCOc1c(C)ccc(-c2ccc(NC3(C(=O)O)CCOCC3)cc2COC2CC2)c1F [Compound 381]	nM	=	17.5
CC(C)COc1cccc(-c2ccc(NC3(C(=O)O)CCOCC3)cc2COC2CCCC2)c1F [Compound 277]	nM	=	72.7
COc1cc(-c2ccc(NC3(C(=O)O)CCOCC3)cc2COC2CCCC2)c(F)c(C2CC2)c1 [Compound 240]	nM	=	23.4
CCCc1nccc(-c2ccc(NC3(C(=O)O)CCOCC3)cc2COC2CC2)c1F [Compound 393]	nM	>	10000
Cc1ccc(-c2ccc(NC3(C(=O)O)CCOCC3)cc2COC2CC2)c(F)c1OC1CC1 [Compound 392]	nM	=	9.44
CCOC1CC(Nc2ccc(-c3cc(OC)c(C)c(OC)c3)c(COC3Cc4ccccc4C3)c2)(C(=O)O)C1 (stereo not drawn) [Compound 137]	nM	=	45.2
